polymerase ribozyme fitness (log ratio) reference
B1: TPR t1 (parent)
chain: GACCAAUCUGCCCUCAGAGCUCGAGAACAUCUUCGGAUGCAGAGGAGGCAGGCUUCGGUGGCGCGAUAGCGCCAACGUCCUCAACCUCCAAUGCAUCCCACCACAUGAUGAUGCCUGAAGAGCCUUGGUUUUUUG

# Variants of: B1
# Procedure Text: polymerase ribozyme fitness, log enrichment relative to wild type (log ratio); higher = more active; in vitro selection for triplet polymerase activity

Worked cases, polymerase ribozyme fitness (log ratio) given:
IN: Suppose we examine the variant C34A U87A A90G ; what polymerase ribozyme fitness (log ratio) value has been reported?
OUT: -2.87

IN: Suppose we examine the variant C99A C123A ; what polymerase ribozyme fitness (log ratio) value has been reported?
OUT: -5.64

IN: Suppose we examine the variant G63C U126A G128U U133A ; what polymerase ribozyme fitness (log ratio) value has been reported?
OUT: -3.25

Others:
IN: Suppose we examine the variant A5U A95C G120C ; what polymerase ribozyme fitness (log ratio) value has been reported?
OUT: 0.108

IN: Suppose we examine the variant G93U U133C ; what polymerase ribozyme fitness (log ratio) value has been reported?
OUT: -1.17

IN: Suppose we examine the variant G10U C11G ; what polymerase ribozyme fitness (log ratio) value has been reported?
OUT: 0.195

IN: Suppose we examine the variant G44U G113C U130A ; what polymerase ribozyme fitness (log ratio) value has been reported?
OUT: -2.45

IN: Suppose we examine the variant C13U C70G ; what polymerase ribozyme fitness (log ratio) value has been reported?
OUT: -1.68

IN: Suppose we examine the variant A18G A24G U55A ; what polymerase ribozyme fitness (log ratio) value has been reported?
OUT: -5.14

IN: Suppose we examine the variant C13G G71A ; what polymerase ribozyme fitness (log ratio) value has been reported?
OUT: -2.22

IN: Suppose we examine the variant U33G G52C U78A C98A U112G U116G ; what polymerase ribozyme fitness (log ratio) value has been reported?
OUT: -7.02

IN: Suppose we examine the variant G48C C49A ; what polymerase ribozyme fitness (log ratio) value has been reported?
OUT: -2.13

IN: Suppose we examine the variant C53A G61A C79A ; what polymerase ribozyme fitness (log ratio) value has been reported?
OUT: -0.911

IN: Suppose we examine the variant C12U U133A ; what polymerase ribozyme fitness (log ratio) value has been reported?
OUT: 0.306

IN: Suppose we examine the variant A5U C11A C102A ; what polymerase ribozyme fitness (log ratio) value has been reported?
OUT: -4.33

IN: Suppose we examine the variant C4A G48C G61A U81C U96A ; what polymerase ribozyme fitness (log ratio) value has been reported?
OUT: -3.76

IN: Suppose we examine the variant U14A C123U G127A ; what polymerase ribozyme fitness (log ratio) value has been reported?
OUT: -0.509

IN: Suppose we examine the variant A29C G71A C88G C123A U131C ; what polymerase ribozyme fitness (log ratio) value has been reported?
OUT: -4.27

IN: Suppose we examine the variant C88U G120A ; what polymerase ribozyme fitness (log ratio) value has been reported?
OUT: -0.0108

IN: Suppose we examine the variant C15G C86U U116G ; what polymerase ribozyme fitness (log ratio) value has been reported?
OUT: -2.95

IN: Suppose we examine the variant C15U G127A U129A ; what polymerase ribozyme fitness (log ratio) value has been reported?
OUT: -4.11

IN: Suppose we examine the variant C101A C114U ; what polymerase ribozyme fitness (log ratio) value has been reported?
OUT: -2.99

FYI, the data here is from the RNAGym collection of RNA variant scans (doi:10.1073/pnas.2313332121).
